- PROCEDURE_TEXT: AUC (0 to infinity) in iv dosed mouse
- Type: ADME, organism-based
- Parameters: route intravenous, time infinity
- EXPERIMENTAL_SETUP: plasma
METRIC_NAME: AUC(0-inf) (µM·h)
The answer is to be given in µM·h; state only the numeric part.

What does the record list as AUC(0-inf) for Nc1nc2c(ncn2[C@H]2CO[C@@H](CO)O2)c(=O)[nH]1 ?
818

----------
- PROCEDURE_TEXT: Terminal elimination half life in orally dosed mouse
- Type: ADME, organism-based
- EXPERIMENTAL_SETUP: in vivo, po, read-out: beta t1/2 (converted)
METRIC_NAME: half-life (min)
The answer is to be given in min; state only the numeric part.

What does the record list as half-life for Nc1ncc2ncn([C@H]3CO[C@@H](CO)O3)c2n1 ?
18

Values from ChEMBL document CHEMBL1154402
